Tested on: P. falciparum Indochina W2 clone
Test: microbe, parasite or virus in culture
Assay type: cell-based, Plasmodium falciparum
Settings: Plasmodium falciparum, W2, read-out: antimalarial activity IC50, CQR W2
endpoint: pIC50
Please express pIC50 as -log10 of the molar concentration.

*Q* Please report the recorded pIC50 for CCN(CC)CCCC(C)Nc1ccnc2cc(Cl)ccc12.O=P(O)(O)O.O=P(O)(O)O (stereo not shown) [CQ, chloroquine, reference compound] .
*A* 6.20

###

Tested on: P. falciparum African D6 clone
Test: microbe, parasite or virus in culture
Format: cell-based, Plasmodium falciparum
Conditions: Plasmodium falciparum, D6, read-out: antimalarial activity IC50, CQS D6
pIC50: −log10 of the molar value.
endpoint: pIC50

Example entries begin here.
*Q* What measured pIC50 is associated with CCN(CC)CCCC(C)Nc1ccnc2cc(Cl)ccc12.O=P(O)(O)O.O=P(O)(O)O (centres unmarked) [CQ, chloroquine, reference compound] on P. falciparum African D6 clone?
*A* 7.85

*Q* Find the measured pIC50: item `Clc1ccc2c(NCCNCc3ccccc3)ccnc2c1` , target or system P. falciparum African D6 clone.
*A* > 8.05

Further cases:
*Q* P. falciparum African D6 clone / pIC50 / `COc1ccc(CNCCCNc2ccnc3cc(Cl)ccc23)cc1` : value?
*A* > 8.05

*Q* Query the reported pIC50 for P. falciparum African D6 clone; item: `COc1ccncc1CNCCCNc1ccnc2cc(Cl)ccc12`
*A* > 8.05

*Q* P. falciparum African D6 clone / pIC50 / `Clc1ccc2c(NCCCNCc3ccncc3)ccnc2c1` : value?
*A* > 8.05

Cited source: paper PMC3880596
